So I've got pKi readings for Mu-type opioid receptor (Homo sapiens), take a look.
pKi: −log10 of the molar value.

>  <compound>
COC(=O)[C@@H]1C[C@H](OC(=O)CSC#N)C(=O)[C@H]2[C@@]1(C)CC[C@H]1C(=O)O[C@H](c3ccoc3)C[C@]21C [22-THIOCYANATOSALVINORIN A]

>  <pKi>
< 5.00

$$$$
>  <compound>
CCOC(=O)/C=C/C(=O)O[C@H]1C[C@@H](C(=O)OC)[C@]2(C)CC[C@H]3C(=O)O[C@H](c4ccoc4)C[C@]3(C)[C@H]2C1=O

>  <pKi>
6.14

$$$$
>  <compound>
CCOC(=O)CC(=O)O[C@H]1C[C@@H](C(=O)OC)[C@]2(C)CC[C@H]3C(=O)O[C@H](c4ccoc4)C[C@]3(C)[C@H]2C1=O [ETHYLSALVINORINB-2-O-MALONATE]

>  <pKi>
< 5.00

$$$$
